Molecular target: T1, PUF4 RNA-binding domain (Saccharomyces cerevisiae, UniProt P25339 537-888)
T1 sequence: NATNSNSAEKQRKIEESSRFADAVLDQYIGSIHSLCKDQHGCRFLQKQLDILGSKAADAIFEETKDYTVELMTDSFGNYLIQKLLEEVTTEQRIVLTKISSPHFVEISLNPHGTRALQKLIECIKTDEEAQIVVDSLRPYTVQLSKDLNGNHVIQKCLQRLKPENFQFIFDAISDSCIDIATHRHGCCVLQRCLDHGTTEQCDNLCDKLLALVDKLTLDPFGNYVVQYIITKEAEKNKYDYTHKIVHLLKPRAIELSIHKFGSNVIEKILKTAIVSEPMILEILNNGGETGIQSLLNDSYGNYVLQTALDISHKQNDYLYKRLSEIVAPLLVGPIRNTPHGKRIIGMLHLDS
Test: Mg; RNA-MaP; 20 mM Na-HEPES pH 7.4, 30 mM KOAc, 0.75 mM MgCl2, 0.1% Tween-20, 5% glycerol, 0.1 mg/mL BSA, 2 mM DTT; 25 C; 0.0125-409.6 nM protein
Conditions: tags: N-His6-TEV cleaved; C-SNAP kept, Cy3B-labelled; label: tethered on chip by stalled RNA polymerase
Kindly supply the reported pKd values for the records listed here.
One number for each entry, as −log10 of the molar value.

Example cases with answers are listed next.
binder="Ic_S4_P4E.1_K4.1_C4.1_H4.1_A4.1_[A6C]_[T7C]_F4.1_[T8C]_[A9G]_T4.1 (ssRNA) RNA: UUUGACAACUGAUCGUUCUUUCUUGUAUCCCGUUCUUUCUCGAUCAGUUGUCUUU" reported_measurement=6.35
binder="Ic_S4_P4E.1_K4.1_C4.1_H4.1_A4.1_[A6C]_[T7A]_F4.1_[T8A]_[A9C]_T4.1 (ssRNA) RNA: UUUGACAACUGAUCGUUCUUUCUUGUAUCAACUUCUUUCUCGAUCAGUUGUCUUU" reported_measurement=6.32
binder="Ie_S4_P5E.1_K5.1_C5.1_H5.1_A5.1_F5.1_[+10TCC]_T5.1 (ssRNA) RNA: UUUGACAACUGAUCGUUCUUUCUUGUAUUAUUAUCCUUCUUUCUCGAUCAGUUGUCUUU" reported_measurement=8.25
binder="UCUCUUAUUAUAUUAUUACCUCUCUU (ssRNA) [Id_ii_S1_P5E.3_K5.2_C5.2_[C-2A]_H5.2_A5.1_F5.1_T5.2_[T11C]_[A12C]]" reported_measurement=6.69

Below is a list of binders. For each, state its recorded pKd.
1. UCUCUUUGUACUAUUAUCUCUU (ssRNA) [Ie_S1_P4E.1_K4.1_C4.1_H4.1_[+4C]_A4.1_F4.1_T4.1]
2. UCUCUUUGUUUUAUUAUCUCUU (ssRNA) [Ia_S1_P5E.1_K5.1_C5.1_H5.1_[A4T]_A5.1_F5.1_T5.1]

Found:
1: 8.35; 2: 7.61

Ref: paper PMC9352680
